Recorded kon, one value per entry.
- study.system: Recombinant human his-tagged IGF 1R extracellular domain protein (human) (UniProt P08069)
- experiment.summary: SPR, captured antibody, dissociation at pH 6
Answer in M⁻¹ s⁻¹, number only, no unit symbol.

{"binder": "VRDN-03111 (antibody, V domains shown) VH: QVQLVESGGGVVQPGRSLRLSCAASGFTFSDYTMHWVRQAPGKGLEWVAIIWFDGSSKYYVDSVKGRFTISRDNSKNTLYLQMNSLRAEDTAVYYCARELGRRYFDIWGRGTLVTVSS VL: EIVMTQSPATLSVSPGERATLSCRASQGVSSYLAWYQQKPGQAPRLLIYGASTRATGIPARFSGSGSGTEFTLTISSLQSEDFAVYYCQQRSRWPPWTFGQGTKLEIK", "measure.unit": "M⁻¹ s⁻¹", "kon": 233000}
{"binder": "VRDN-03045 (antibody, V domains shown) VH: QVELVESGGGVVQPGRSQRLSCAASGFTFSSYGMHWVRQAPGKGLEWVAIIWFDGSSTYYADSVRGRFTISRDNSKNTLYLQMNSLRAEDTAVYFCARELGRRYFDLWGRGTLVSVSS VL: EIVLTQSPATLSLSPGERATLSCRASQSVSHYLAWYQQKPGQAPRLLIYDASKRATGIPARFSGSGSGTDFTLTISSLEPEDFAVYYCQQRSKWPPWTFGQGTKVESK", "measure.unit": "M⁻¹ s⁻¹", "kon": 80500}

Continue with the next binder.
Identify kon associated with the binder VRDN-03106 (antibody, V domains shown) VH: QVQLVESGGGVVQPGRSLRLSCAASGFTFSDHYMDWVRQAPGKGLEWVAIIWFDGSSKYYPGSVKGRFTISRDNSKNTLYLQMNSLRAEDTAVYYCARELGRRYFDIWGRGTLVTVSS VL: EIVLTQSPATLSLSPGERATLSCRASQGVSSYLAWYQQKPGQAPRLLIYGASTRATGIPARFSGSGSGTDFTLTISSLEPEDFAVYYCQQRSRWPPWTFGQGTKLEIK
1.2e+06
